# Tested On: 17-beta-hydroxysteroid dehydrogenase type 2 (Homo sapiens) (UniProt P37059)
# Sequence (P37059 whole entry): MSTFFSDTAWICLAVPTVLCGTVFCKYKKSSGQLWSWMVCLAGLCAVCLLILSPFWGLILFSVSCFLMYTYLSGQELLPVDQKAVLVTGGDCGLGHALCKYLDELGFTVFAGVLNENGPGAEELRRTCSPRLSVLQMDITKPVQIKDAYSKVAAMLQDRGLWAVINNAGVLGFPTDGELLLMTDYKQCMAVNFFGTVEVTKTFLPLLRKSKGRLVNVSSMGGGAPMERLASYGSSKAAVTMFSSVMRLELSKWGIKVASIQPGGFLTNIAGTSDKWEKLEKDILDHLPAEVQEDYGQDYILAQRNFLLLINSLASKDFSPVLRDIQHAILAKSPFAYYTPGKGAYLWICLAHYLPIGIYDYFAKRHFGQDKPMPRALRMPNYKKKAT
# Method: Inhibition of 17beta-HSD2 (unknown origin) expressed in HEK293 cells lysate assessed as residual enzyme activity at 20 uM
# Format: cell-free
Readout Label: Activity

# Compound, Result
records = [
    ("CCc1ccc(CC)c(S(=O)(=O)Nc2cc(OC)ccc2OC)c1", "> 70%"),
    ("O=C(CSc1ncccn1)Nc1cccc2nsnc12", "> 70%"),
]

Supply Activity value. Item: `CC(=O)Nc1ccccc1NS(=O)(=O)c1c(C)c(C)cc(C)c1C` > 70%

Supply Activity value. Item: `COc1cc(C)c(S(=O)(=O)Nc2ccc(Cl)cc2)cc1C` > 70%

Supply Activity value. Item: `COc1ccc(NS(=O)(=O)c2cc(C)ccc2C)cc1` > 70%

Supply Activity value. Item: CC(O)c1ccccc1NS(=O)(=O)c1ccc(F)cc1 (configuration not stated) > 70%

Supply Activity value. Item: `CC(=O)Nc1ccc(S(=O)(=O)Oc2ccc3c(c2)NCCC3)cc1` > 70%

====

Reported Activity values for a set of molecules
# Tested On: 17-beta-hydroxysteroid dehydrogenase type 1 (Homo sapiens) (UniProt P14061)
# Sequence (P14061 whole entry): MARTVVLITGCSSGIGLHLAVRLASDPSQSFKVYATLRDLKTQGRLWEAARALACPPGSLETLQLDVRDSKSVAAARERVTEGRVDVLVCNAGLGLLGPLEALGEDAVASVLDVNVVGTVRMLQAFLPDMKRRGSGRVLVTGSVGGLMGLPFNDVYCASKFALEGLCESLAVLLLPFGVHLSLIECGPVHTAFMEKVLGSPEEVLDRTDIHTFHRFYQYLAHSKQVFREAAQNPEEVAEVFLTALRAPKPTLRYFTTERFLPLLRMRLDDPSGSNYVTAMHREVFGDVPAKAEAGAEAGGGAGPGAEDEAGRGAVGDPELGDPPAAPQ
# Method: Inhibition of 17beta-HSD1 (unknown origin) expressed in HEK293 cells lysate assessed as residual enzyme activity at 20 uM
# Assay type: cell-free
Only the number, expressed in %, is required.

Supply Activity value. Item: `Cc1cc(C)c(OCC(=O)N/N=C/c2ccc(O)cc2O)c(Br)c1` 52

Supply Activity value. Item: `Cc1ccc(NS(=O)(=O)c2cccc(Br)c2)cc1O` 58

====

# Tested On: 17-beta-hydroxysteroid dehydrogenase type 2 (Homo sapiens) (UniProt P37059)
# Method: Inhibition of 17beta-HSD2 (unknown origin) expressed in HEK293 cells lysate assessed as residual enzyme activity at 20 uM
# Format: cell-free
Readout Label: Activity

# Compound Structure, Activity
measured = [
    ("O=S(=O)(Nc1ccccc1F)c1ccc(Br)cc1", "> 70%"),
    ("Cc1ccc(NS(=O)(=O)c2ccc(Cl)cc2)cc1O", "45%"),
    ("O=S(=O)(Nc1ccccc1CO)c1ccc(Cl)cc1", "> 70%"),
]

Supply Activity value. Item: `COc1ccc(NS(=O)(=O)c2ccc(Cl)cc2)cc1` > 70%

Supply Activity value. Item: `O=S(=O)(Nc1cccc(Cl)c1)c1ccc(F)cc1` > 70%
